Details: 0.1N HCL, 1.0% DMSO, 24-hour incubation at ambient temperature, maximum theoretical compound concentration 100 μM

| item_smiles | pH 2 solubility |
| --- | --- |
| CN(C)CCCC[C@H](N)C(=O)N(c1nn(CC(F)(F)F)c2c(-c3ccc(C#CC(C)(C)S(C)(=O)=O)nc3[C@H](Cc3cc(F)cc(F)c3)NC(=O)Cn3nc(C(F)(F)F)c4c3C(F)(F)[C@@H]3C[C@H]43)ccc(Cl)c12)S(C)(=O)=O | 92 μM |
| CC(C)(C#Cc1ccc(-c2ccc(Cl)c3c(N(C(=O)[C@H](CCC(=O)O)NC(=O)C(=O)O)S(C)(=O)=O)nn(CC(F)(F)F)c23)c([C@H](Cc2cc(F)cc(F)c2)NC(=O)Cn2nc(C(F)(F)F)c3c2C(F)(F)[C@@H]2C[C@H]32)n1)S(C)(=O)=O | 1 μM |
